tested-system: T1, TRKA protein with a histidine tag (human, UniProt P04629 33-423, limits assumed)
T1 construct: it is put last here only for order; also called TRKA (50 µg/ml, 75 kDa, provided by HEC Labs); not shown: histidine tag
T1 sequence (P04629 33-423 limits assumed): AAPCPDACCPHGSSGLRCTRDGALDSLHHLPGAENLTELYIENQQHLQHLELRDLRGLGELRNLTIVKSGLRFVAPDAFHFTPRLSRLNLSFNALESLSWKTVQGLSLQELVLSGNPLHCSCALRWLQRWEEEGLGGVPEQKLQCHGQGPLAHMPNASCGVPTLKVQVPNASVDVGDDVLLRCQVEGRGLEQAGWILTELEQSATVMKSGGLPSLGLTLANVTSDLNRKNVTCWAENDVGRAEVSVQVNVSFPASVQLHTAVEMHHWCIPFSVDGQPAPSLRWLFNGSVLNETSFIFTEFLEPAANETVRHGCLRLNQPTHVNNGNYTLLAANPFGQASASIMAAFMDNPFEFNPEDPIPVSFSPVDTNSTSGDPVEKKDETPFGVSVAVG
protocol-notes: BLI (Fortebio Octet RED96), His-tagged TRKA on Ni-NTA sensor, antibody 80-2.93 nM
property-label: kon (M⁻¹ s⁻¹)
Numbers only; they are read as M⁻¹ s⁻¹.

Here's what some known entries look like.
binder="2008 chimeric antibody (antibody, human IgG4 S228P, kappa, F234A L235A, V domains shown, also called 20C8) VH: EVLLQQSGPELVKPGASMKISCKASVYSFTAYTMNWVKQSHGKNLEWIGLINPHNGGTRYNQKFKGKATLTLDKSSSTAYMDLLSLTSEDSAVYYCAISRYGSSSFYFDVWGAGTTVAVSS VL: QIVLSQSPAILSASPGEKVTMTCRASSSISYMHWYQQKPGSSPKPWISATSNLASGVPARFSGSGSGTSYSLTISGVEAEDAATYYCQQWSSNPPTFGGGTNLEIKR" property_label=kon units_symbol="M⁻¹ s⁻¹" test_value=551000
binder="4H4 chimeric antibody (antibody, human IgG4 S228P, kappa, F234A L235A, V domains shown, expressed in CHO cells) VH: EVQLQQSGPELVKPGASMKISCKASGYSFTGYTMNWVKQSHGKNLEWIGLINPYNGGTRYNQKFKGKATLTVDKSSSTAYMELLSLTSEDSAVYYCASSSYRNDGNWYFDVWGAGTTVTVSS VL: DIVMTQSPAIMSASPGEKVTMTCSASSSVSYMHWYQQKSGTSPKRWIYDTSKLASGVPARFSGSGSGTSYSLTISSMETEDAATYYCQQWSSNPPTFGGGTKLELKR" property_label=kon units_symbol="M⁻¹ s⁻¹" test_value=139000
binder="27H3 chimeric antibody (antibody, human IgG4 S228P, kappa, F234A L235A, V domains shown, expressed in CHO cells) VH: QVQLQQSGAELMKPGASVKISCKTTGYRFSSYWIEWVKQRPGHGLEWLGEILPGRGIINYNENFRGKATFTADTSSNTAYVQLSSLTSEDSAVYFCARTDPPYFGVWGAGTTVTVSS VL: QAVVTQESALTTSPGETVTLTCRSSTGAVTISNYANWVQEKPDHLFTGLIGGTNNRPPGVPARFSGSLIGDKAALTITGAQTEDEAIYFCVLWYSNHWVFGGGTKLTVLR" property_label=kon units_symbol="M⁻¹ s⁻¹" test_value=1.57e+06

Could you now consider this next binder?
Exercise: Item under review: 23E12 chimeric antibody (antibody, human IgG4 S228P, kappa, F234A L235A, V domains shown, expressed in CHO cells) VH: QVQLQQSGAELVRPGTSVKISCKASGYAFTNYWLGWMKQRPGHGLEWIGDFYPRTGNTFYNENFKGKVTLTADKSSNTAYMQLSSLTSEDSAVYLCARAGTGFDYWGQGTTLTVSS VL: SIVMTQSPKSMSMSVGERVTLSCKASENVGGYVSWYQQKPDQSPKLLIYGASSRHTGVPDRFTGSGSETDFTLTISSVQAEDLAAYHCGQNYIYPFTFGGGTKLEIKR . Reported kon?
Solution: 1.9e+06
